- measured on: aggregated recombinant human-microtubule associated protein Tau (Homo sapiens)
- Construct: Recombinant human-microtubule associated protein Tau purified from E. coli is aggregated at a concentration of 5 μM with Arachidonic Acid (100 μM) in Tris 10 mM pH8, 24 h at 37° C
- method summary: Thiazin-red R displacement fluorescence assay on aggregated Tau
- test conditions: displacement of Thiazin-red R from aggregated Tau; compound 0.3 nM to 10000 nM; 30 min room temperature; Ex 531 nm/Em 595 nm
Range-based classes on measured IC50: lo (below 10 nM), mid (10 nM to below 20 nM), hi (20 nM or more)

Worked cases, answers included:
COc1cc(/C=c2\sc3nc(-c4ccc(C(F)(F)F)c(F)c4)cn3c2=O)cc(OC)c1O ... mid
CCOc1cc(/C=c2\sc3nc(-c4ccc(Cl)cc4)cn3c2=O)ccc1O ... hi
COc1cc(/C=c2\sc3nc(-c4ccccc4C)cn3c2=O)cc(F)c1O ... hi
COc1cc(/C=c2\sc3nc(-c4ccc(C(=O)NCCN)cc4)cn3c2=O)cc(Cl)c1O ... mid
CCCOc1cc(/C=c2\sc3nc(-c4cccnc4)cn3c2=O)cc(Cl)c1O ... mid

Form field 'band' for COc1cc(/C=c2\sc3nc(-c4cccc(OC(F)F)c4)cn3c2=O)cc(Cl)c1O lo

Form field 'band' for COc1cc(/C=c2\sc3nc(-c4ccc(NC(C)=O)cc4)cn3c2=O)cc(Cl)c1O hi

Form field 'band' for COc1cc(/C=c2\sc3nc(-c4ccc(C(=O)NCCCF)cc4)cn3c2=O)cc(Cl)c1O [Example 117] lo

Form field 'band' for COc1cc(/C=c2\sc3nc(-c4cccc(OCCF)c4)cn3c2=O)cc(Cl)c1O lo

Form field 'band' for COc1cc(/C=c2\sc3nc(-c4ccc5c(c4)CC(=O)N5)cn3c2=O)cc(Cl)c1O mid

====

- measured on: aggregated synthetic Aβ40 (Homo sapiens, UniProt P05067)
- Construct: Synthetic Aβ40 is aggregated at a concentration of 50 μM
- Sequence (P05067 672-711 limits assumed): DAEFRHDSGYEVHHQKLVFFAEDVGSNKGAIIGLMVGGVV
- method summary: Thiazin-red R displacement fluorescence assay on aggregated A-beta
- test conditions: displacement of Thiazin-red R from aggregated Aβ40; compound 0.3 nM to 10000 nM; 30 min room temperature; Ex 531 nm/Em 595 nm
observable: IC50

Look over these answered cases.
COc1cc(/C=c2\sc3nc(-c4cccc(C#N)c4)cn3c2=O)cc(Cl)c1O ... 24000 nM
COc1cc(/C=c2\sc3nc(-c4cccc(C(F)(F)F)c4)cn3c2=O)cc(F)c1O ... 1810 nM
COc1cc(/C=c2\sc3nc(-c4cccc(C)c4)cn3c2=O)cc(OC)c1O ... 20 nM
COc1cc(/C=c2\sc3nc(-c4ccccc4C)cn3c2=O)ccc1O ... 1280 nM

Would you kindly share the measured IC50 for COc1cc(/C=c2\sc3nc(-c4cccc(OC(F)F)c4)cn3c2=O)cc(Cl)c1O ? 4160 nM

Would you kindly share the measured IC50 for COc1cc(/C=c2\sc3nc(-c4cccc(C#N)c4)cn3c2=O)cc(OC(C)C)c1O ? > 10000 nM

Would you kindly share the measured IC50 for COc1cc(/C=c2\sc3nc(-c4ccncc4)cn3c2=O)cc(Cl)c1O ? 300 nM

Would you kindly share the measured IC50 for COc1cc(/C=c2\sc3nc(-c4ccc(NC(C)=O)cc4)cn3c2=O)cc(Cl)c1O ? 1160 nM

Would you kindly share the measured IC50 for COc1cc(/C=c2\sc3nc(-c4cccc(OC(F)(F)F)c4)cn3c2=O)cc(OC)c1O ? 114 nM

Would you kindly share the measured IC50 for COc1cc(/C=c2\sc3nc(-c4ccc(Cl)cc4)cn3c2=O)ccc1O ? 215 nM

Would you kindly share the measured IC50 for COc1cc(/C=c2\sc3nc(-c4ccc5c(c4)CC(=O)N5)cn3c2=O)cc(Cl)c1O ? 226 nM

Would you kindly share the measured IC50 for COc1cc(/C=c2\sc3nc(-c4ccc(Cl)cc4)cn3c2=O)cc(OCCF)c1O ? 7 nM

====

- measured on: aggregated synthetic Aβ40 (Homo sapiens, UniProt P05067)
- Construct: Synthetic Aβ40 is aggregated at a concentration of 50 μM
- method summary: Thiazin-red R displacement fluorescence assay on aggregated A-beta
- test conditions: displacement of Thiazin-red R from aggregated Aβ40; compound 0.3 nM to 10000 nM; 30 min room temperature; Ex 531 nm/Em 595 nm
observable: pIC50
Remember, pIC50 is on a log scale: it is -log10 of the molar concentration.

Look over these answered cases.
COc1cc(/C=c2\sc3nc(-c4ccc(N5CCCC5)cc4)cn3c2=O)cc(Cl)c1O ... 7.80
COc1cc(/C=c2\sc3nc(-c4ccccc4C)cn3c2=O)cc(Cl)c1O ... 5.91
CCc1cccc(-c2cn3c(=O)/c(=C/c4cc(Cl)c(O)c(OC)c4)sc3n2)c1 ... 6.19
COc1cc(/C=c2\sc3nc(-c4ccc(C(=O)N5CC(F)C5)cc4)cn3c2=O)cc(Cl)c1O ... 6.88
COc1cc(/C=c2\sc3nc(-c4cccc(N5CCOCC5)c4)cn3c2=O)cc(Cl)c1O ... 6.45
COc1cc(/C=c2\sc3nc(-c4ccc(Cl)cc4)cn3c2=O)cc(O)c1O ... 7.74
CCCOc1cc(/C=c2\sc3nc(-c4cnc[nH]4)cn3c2=O)cc(Cl)c1O ... 5.51
CCCOc1cc(/C=c2\sc3nc(-c4ccc(Cl)cc4)cn3c2=O)cc(OC)c1O ... 7.92

Would you kindly share the measured pIC50 for COc1ccc(-c2cn3c(=O)/c(=C/c4cc(Cl)c(O)c(OC)c4)sc3n2)cc1OC ? 6.49

Would you kindly share the measured pIC50 for COc1cc(/C=c2\sc3nc(-c4ccc(C(=O)O)cc4)cn3c2=O)cc(F)c1O ? 6.05

Would you kindly share the measured pIC50 for COc1cc(/C=c2\sc3nc(-c4ccc(C(=O)N(C)CCCF)cc4)cn3c2=O)cc(Cl)c1O ? 6.48

Would you kindly share the measured pIC50 for COc1cc(/C=c2\sc3nc(-c4ccc(OCCF)cc4)cn3c2=O)cc(Cl)c1O ? 7.60

Would you kindly share the measured pIC50 for COc1cc(/C=c2\sc3nc(-c4ccc(N(C)C)cc4)cn3c2=O)cc(Cl)c1O ? 7.54

Would you kindly share the measured pIC50 for COc1cc(/C=c2\sc3nc(-c4cccc(C(F)(F)F)c4)cn3c2=O)cc(Cl)c1O ? 6.91

Would you kindly share the measured pIC50 for COc1cc(/C=c2\sc3nc(-c4ccncc4)cn3c2=O)cc(Br)c1O ? 6.99

Would you kindly share the measured pIC50 for COc1cc(/C=c2\sc3nc(-c4ccc(C(N)=O)cc4)cn3c2=O)cc(Cl)c1O ? 6.10

Would you kindly share the measured pIC50 for COc1cc(/C=c2\sc3nc(-c4cccc(C(F)(F)F)c4)cn3c2=O)cc(OC)c1O ? 6.94

Would you kindly share the measured pIC50 for CCCOc1cc(/C=c2\sc3nc(-c4cccnc4)cn3c2=O)cc(Cl)c1O ? 6.37

Would you kindly share the measured pIC50 for COc1cc(/C=c2\sc3nc(-c4cccc(C(N)=O)c4)cn3c2=O)cc(F)c1O ? 6.23

Would you kindly share the measured pIC50 for COc1cc(/C=c2\sc3nc(-c4ccc(C(F)(F)F)c(F)c4)cn3c2=O)cc(Cl)c1O ? 5.98

Would you kindly share the measured pIC50 for COc1cc(/C=c2\sc3nc(-c4cc(Br)cc(C#N)c4)cn3c2=O)cc(Cl)c1O ? 5.76

====

- measured on: aggregated recombinant human-microtubule associated protein Tau (Homo sapiens, UniProt P10636)
- Construct: Recombinant human-microtubule associated protein Tau purified from E. coli is aggregated at a concentration of 5 μM with Arachidonic Acid (100 μM) in Tris 10 mM pH8, 24 h at 37° C
- Sequence (P10636 whole entry): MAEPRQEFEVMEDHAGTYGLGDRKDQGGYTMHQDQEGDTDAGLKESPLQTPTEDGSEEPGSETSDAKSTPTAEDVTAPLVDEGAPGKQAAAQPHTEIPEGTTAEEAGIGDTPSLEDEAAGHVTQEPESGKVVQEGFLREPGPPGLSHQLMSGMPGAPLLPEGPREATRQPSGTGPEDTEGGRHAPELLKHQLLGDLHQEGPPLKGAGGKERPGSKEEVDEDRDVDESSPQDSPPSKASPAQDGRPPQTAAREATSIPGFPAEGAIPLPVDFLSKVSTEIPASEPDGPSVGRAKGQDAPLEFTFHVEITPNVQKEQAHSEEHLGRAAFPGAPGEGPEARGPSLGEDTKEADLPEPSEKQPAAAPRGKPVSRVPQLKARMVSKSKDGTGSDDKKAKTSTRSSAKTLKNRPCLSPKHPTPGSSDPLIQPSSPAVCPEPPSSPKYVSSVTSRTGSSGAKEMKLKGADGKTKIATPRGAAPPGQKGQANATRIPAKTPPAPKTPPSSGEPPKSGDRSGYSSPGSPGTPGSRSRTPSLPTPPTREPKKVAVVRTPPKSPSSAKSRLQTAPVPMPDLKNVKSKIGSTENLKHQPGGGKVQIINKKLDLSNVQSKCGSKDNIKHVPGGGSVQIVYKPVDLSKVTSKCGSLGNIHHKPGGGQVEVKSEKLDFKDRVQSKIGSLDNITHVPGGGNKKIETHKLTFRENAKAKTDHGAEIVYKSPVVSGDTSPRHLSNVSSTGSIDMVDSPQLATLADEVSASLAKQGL
- method summary: Thiazin-red R displacement fluorescence assay on aggregated Tau
- test conditions: displacement of Thiazin-red R from aggregated Tau; compound 0.3 nM to 10000 nM; 30 min room temperature; Ex 531 nm/Em 595 nm
- Method: Assay for Determination of […] for Tau and A-Beta Recombinant human-microtubule associated protein Tau purified from E. coli is aggregated at a concentration of 5 μM with Arachidonic Acid (100 μM) in Tris 10 mM pH8, 24 h at 37° C. Synthetic Aβ40 is aggregated at a concentration of 50 μM with Arachidonic Acid (100 μM) in Tris 10 mM pH8, for three days at 37° C., under shaking at 150 rpm. […]
observable: log10(IC50) (log10 of the value in nM)
Scale: log10; quantity: IC50; unit before log: nM

Look over these answered cases.
O=c1/c(=C/c2cc(Cl)c(O)c(OCCCF)c2)sc2nc(-c3ccncc3)cn12 ... 1.08
COc1cc(/C=c2\sc3nc(-c4ccc(F)c(C(F)(F)F)c4)cn3c2=O)cc(F)c1O ... 1.38

Would you kindly share the measured log10(IC50) for COc1cc(/C=c2\sc3nc(-c4cc(F)ccc4F)cn3c2=O)cc(Cl)c1O ? 1.43

Would you kindly share the measured log10(IC50) for CCc1cccc(-c2cn3c(=O)/c(=C/c4cc(Cl)c(O)c(OC)c4)sc3n2)c1 ? 1.40

Would you kindly share the measured log10(IC50) for COc1ccc(-c2cn3c(=O)/c(=C/c4cc(Cl)c(O)c(OC)c4)sc3n2)cc1OC ? 1.15

Would you kindly share the measured log10(IC50) for COc1cc(/C=c2\sc3nc(-c4cccc(OC(F)(F)F)c4)cn3c2=O)cc(OC(C)C)c1O ? 1.41

Would you kindly share the measured log10(IC50) for COc1cc(/C=c2\sc3nc(-c4cccc(OC(F)(F)F)c4)cn3c2=O)cc(Br)c1O ? 0.78

Would you kindly share the measured log10(IC50) for COc1ccc(-c2nc3s/c(=C\c4cc(F)c(O)c(OC)c4)c(=O)n3c2C)cc1 ? 1.72

Would you kindly share the measured log10(IC50) for COc1cc(/C=c2\sc3nc(-c4cccc(F)c4)cn3c2=O)cc(OC)c1O ? 0.30
